Tested on: EKVX NSCLC
Assay: NCI tumour cell line growth inhibition, 48 h; in the data active means GI50 below about 0.43 µM; inactive means the rest
Field 'call' accepts T for active, F for inactive

Recorded call for CCCCCCNC(=O)Oc1ccc(/C(=C(/C)Cc2ccc(OC)cc2)c2ccc(OCCCN(C)C)cc2)cc1 ?
F

GET /call?item= N#Cc1c(Br)n(C2OC(CO)C(O)C2O)c2ncnc(N)c12 (centres undefined) returns the recorded outcome of this test.
F

Recorded test outcome, item COc1ccc2c(c1)CC[C@@H]1[C@@H]2CC[C@]2(C)[C@@H](NC(=O)/C=C/c3ccc(O)c(O)c3)CC[C@@H]12
F

Entry CC(=O)c1c(CN(C)c2ccccc2)n([O-])c2ccccc2[n+]1=O : call = ?
F

How was CC(C)N1CCN(Cc2ccc3c(NNC(=O)c4ccccc4)nc4cc(F)ccc4n23)CC1 classified in this test?
T

What outcome does the record of this test show for O=[N+]([O-])c1ccc(Oc2nc(Nc3ccc(O[C@H]4CO[C@H]5[C@@H]4OC[C@@H]5O)c(Cl)c3)ncc2F)c(Cl)c1 ?
F

# outcome recorded in this test, key = COc1ccc2c(C3(c4cn(C)c5cc(OC)ccc45)C(=O)Nc4ccc(Cl)cc43)cn(C)c2c1
F

For CCC(c1ccc(OC)cc1)C(CC)c1ccc(O)c(CN2CCN(C)CC2)c1 (centres undefined) , what call appears in the results of this test?
F

Which result was noted for this compound in the test: COc1ccc(C(c2ccc(OCCN(C)C)cc2)c2cc3ccccc3c3ccccc23)cc1 (centres undefined)
F

* * *

Exercise: state measured TGI for each of the molecules provided.
System: UO-31 renal
Assay: NCI tumour cell line growth inhibition, 48 h
Lab book: enter the figure in µM, no units written.

Param item = CCCCCc1cc2cc3c(c(O)c2c(=O)[nH]1)C1(CCC3)C(O)=c2c(=O)c3c(=O)cc(OC)c(=O)c=3c(=O)c2=C1O (stereo not given) ; retrieve measured TGI.
1.94

I am curious: what TGI value has been reported for COC(=O)/C=C\C(C#N)(C#N)N=Cc1ccccc1 ?
7.23

* * *

Tested on: HT29 colon
Test: NCI tumour cell line growth inhibition, 48 h
Answer each item with its documented TGI.

Name the recorded TGI for C(=Nc1ccc(-c2nc3ccccc3[nH]2)cc1)c1ccc[nH]1 .
> 100 µM

What value of measured TGI is listed for O=C(O)C[C@@H]1[C@@H](O)[C@@H](O)CN2C(=O)c3ccccc3[C@H]12 ?
> 100 µM

Endpoint output: TGI of C/C(=C\c1ccccc1)C(=O)NCc1ccc(C(=O)NCCc2ccccc2)cc1 . Value?
6.81 µM

// query TGI value for entry ON(Cc1ccccc1)C(=S)c1ccccc1
> 100 µM

Bench note: what TGI did O=[N+]([O-])c1ccc(N/N=C/CC(O)(C(F)(F)F)C(F)(F)F)c([N+](=O)[O-])c1 show?
> 10 µM

Item c1ccc(CN[C@]23C4C5CC6C7C5C2C7[C@@](NCc2ccccc2)(C64)N3Cc2ccccc2)cc1 (some centres undefined) has what recorded TGI?
> 100 µM

Given the entry CC(C)(C)c1ccc(OC(=O)Nc2ccc(O)c(C(=O)O)c2)cc1 , report its measured TGI.
> 100 µM

What does the data say about its TGI? Entry: COc1cc2oc(=O)cc(C)c2cc1O
> 100 µM

Consider the compound COc1ccc2[nH]c3c(c2c1)CCN[C@]31CS[C@@H]2c3c(OC(C)=O)c(C)c4c(c3[C@H](COC1=O)N1[C@@H]2[C@H]2c3c(cc(C)c(OC)c3O)C[C@@H]([C@@H]1O)N2C)OCO4 and give its measured TGI.
> 100 µM

* * *

Test system: SK-MEL-2 melanoma
Assay: NCI tumour cell line growth inhibition, 48 h
Field: TGI. Provide a value for each of the compounds that follow.

Using the record for Nc1cc(O)ccc1N=Nc1ccc(-c2nc3ccccc3[nH]2)cc1 , report its TGI.
> 100 µM

Return reported TGI; argument: Nc1nc(N)c(C=Nc2ccc(Br)cc2)c(Nc2ccc(Br)cc2)n1
23 µM

Which TGI is reported for this compound? Nc1c(O)cc(N=C2C(=O)C=CC=C2C(=O)O)c(O)c1C(=O)O
> 91.2 µM

Entry under review: COc1ccccc1C1=C(Nc2ccccc2)C(=O)NC1=O . Reported TGI?
> 25 µM

Can you share its TGI? I mean this compound: COC(=O)C(=CNC(N)=O)C(=O)OC
> 100 µM

Quick one: TGI of O=[N+]([O-])c1ccc(N/N=C/CC(O)(C(F)(F)F)C(F)(F)F)c([N+](=O)[O-])c1 ?
6.64 µM

Given the entry C(=Nc1ccc(-c2nc3ccccc3[nH]2)cc1)c1ccc[nH]1 , report its measured TGI.
> 100 µM

Suppose we examine the compound CNC(=S)N/N=C(\C(=N/NC(=S)NC)c1ccccn1)c1ccccn1 ; what TGI value has been reported?
> 100 µM

State the recorded TGI for this entry: COC(=O)/C=C\C(C#N)(C#N)N=Cc1ccccc1
32.9 µM

// query TGI value for entry O=S(=O)(O)c1ccc(N=Nc2nc(C(F)(F)F)c(C(F)(F)F)[nH]2)cc1
> 100 µM

Any idea what TGI was measured for CCCC(C)n1c(C)nc2c1C(=O)c1ccccc1C2=O (stereo unspecified) ?
47.1 µM

For the compound shown here, CC(=O)OC1=CC2=CC[C@H]3[C@@H]4CCC(=O)[C@@]4(C)CC(=O)[C@]3(S)[C@@]2(C)CC1 , give the reported TGI.
> 100 µM

Looking for the measured TGI of COc1ccc(/C=C/C(=O)c2cc(C(C)(C)C)c(O)c(C(C)(C)C)c2)cc1OC , can you help?
16.5 µM

If you can, please state the reported TGI value of COc1ccc(/C=C2\CCS(=O)(=O)c3ccccc3C2=O)cc1OC .
> 100 µM

Which TGI is reported for this compound? C#CC[N+](C)(CC#C)CC#C
> 100 µM

Using the record for COP(=O)(OC)C(NC(=O)C(F)(F)F)(c1ccccc1)C(F)(F)F (stereo unspecified) , report its TGI.
> 100 µM

Looking for the measured TGI of S=c1nc(COc2ccc(Cl)cc2Cl)[nH][nH]1 , can you help?
> 100 µM

What TGI value was documented for this compound, O=C(/C=C/c1ccco1)c1ccc(NCc2nc3ccccc3[nH]2)cc1 ?
34.9 µM

Please look up its TGI: CSCCCS/C1=C/CCCCCCCCCC1
> 100 µM

Quick check: TGI of COC(=O)[C@H]1NC(=O)CCSSC1(C)C ?
> 100 µM

Any idea what its TGI is? The compound is COc1cc(-c2cc(-c3ccc(Nc4ccnc5cc(Cl)ccc45)cc3)nc(N3CCOCC3)n2)cc(OC)c1OC
48 µM

Please look up its TGI: CCOC(=O)C(CC(C)C)NC(=O)CSc1nnc(COc2ccc(Cl)cc2)n1-c1ccccc1 (stereo unspecified)
30 µM

TGI for ON(Cc1ccccc1)C(=S)c1ccccc1 ?
> 100 µM

# get_value(readout='TGI', item= Brc1ccc2c3c1[C@H]1O[C@H]1c1cccc(c1-3)[C@@H]1O[C@H]21 )
41.6 µM

Name the recorded TGI for Cn1c(=O)c(NC(=O)C(Cl)(Cl)Cl)nc2ccccc21 .
> 100 µM

Reported TGI for O=C(CN1CCN(c2cc3c(cc2F)c(=O)c(C(=O)O)cn3C2CC2)CC1)Nc1nc(-c2ccc(Cl)cc2)cs1 : what is it?
21 µM

# get_value(readout='TGI', item= O=c1[nH]c2ccccc2c(O)c1/C=N/C(=S)NCc1ccccc1 )
> 100 µM

Can you share its TGI? I mean this compound: O=[N+]([O-])c1ccc(C(Nc2ccccc2)P(c2ccccc2)c2ccccc2)cc1 (stereo unspecified)
> 100 µM

Recorded TGI of CC1=NN(C(=O)CC(=O)Nc2ccccc2Cl)C(=O)C1N=Nc1ccc(S(=O)(=O)c2ccc(N=NC3C(=O)N(C(=O)CC(=O)Nc4ccccc4Cl)N=C3C)cc2)cc1 (stereo unspecified) , please.
> 100 µM

Fill in: TGI of CCOC(=O)C[n+]1cccc(C2(c3cc4ccccc4[nH]3)OCCO2)c1 is ___
> 100 µM

Which measured TGI value corresponds to COC(=O)CCC1CCc2c(OC)ccc(OC)c2C1=O (stereo unspecified) ?
> 100 µM

Which measured TGI value corresponds to C=CC(OC(C)=O)c1ccc(OC(=O)C(C)C)c(OC)c1 (stereo unspecified) ?
15.8 µM

Bench note: what TGI did CCN(CC)C(=S)Nc1ccc(-c2cc3ccc(O)cc3oc2=O)cc1 show?
49.3 µM

Any idea what TGI was measured for Clc1ccc(-c2nnc(-c3cccc4ccccc34)o2)cc1Cl ?
> 100 µM

Give the measured TGI of CCN1C(=O)CCCc2c1ccc(Nc1ncc(Cl)c(NC3[C@@H](C(N)=O)[C@@H]4C=C[C@H]3C4)n1)c2OC (stereo partly specified) .
3.79 µM

# get_value(readout='TGI', item= C[n+]1c(-c2ccc(/C=N/Nc3ccnc(N/N=C/c4ccc(-c5cn6ccsc6[n+]5C)cc4)n3)cc2)cn2ccsc21 )
85.9 µM

Item under review: CCOc1cc(Br)c(C(C)NC(=O)c2cccc(OC)c2)cc1OCC (stereo unspecified) . Reported TGI?
> 76.7 µM

Consider the compound COc1cc(CNc2cnc3cc(N)ccc3n2)cc(OC)c1OC and give its measured TGI.
2.38 µM

Item Cc1ccc(NC(=O)C2C(=O)N(c3ccc(C)c(C)c3)C(=O)/C2=N\NC(N)=O)cc1C (stereo unspecified) has what recorded TGI?
> 100 µM

Item CC(C)N1CCN(Cc2ccc3c(NNC(=O)c4ccccc4)nc4cc(F)ccc4n23)CC1 has what recorded TGI?
20.8 µM

Give the measured TGI of COC(=O)/C(=N/Nc1cccc(Cl)c1)C(C(=O)C(=O)Nc1cccc(Cl)c1C)c1nc2ccccc2nc1C (stereo unspecified) .
> 100 µM
